Provenance of the data: patent US9604996B2

- experimental system: human adenosine A2b receptor (Homo sapiens, UniProt P29275)
- protocol notes: Cellular reporter gene (CRE-luciferase) A2b receptor antagonist assay in recombinant CHO-K1 cells stimulated with NECA
- assay setup: recombinant CHO-K1 cell line, co-incubation with EC50 concentration of NECA, 3 hours, in some cases means, rounded to two significant digits
assay endpoint: IC50 (nM)

// worked examples, IC50 included
C#CCCn1c(=O)c2c(C)c(C(=O)N3CCC(O)CC3)sc2n(CCC(F)(F)F)c1=O
17
Cc1c(C(=O)N2CCNC(=O)C2)sc2c1c(=O)n(CCc1ccccc1)c(=O)n2CCOC(F)(F)F
12
Cc1c(C(=O)N2CCC(O)CC2)sc2c1c(=O)n(CC(F)c1ccccc1)c(=O)n2CCC(F)(F)F (single isomer, unassigned) [Example 103]
16
Cc1c(C(=O)N2CCC(C)(O)CC2)sc2c1c(=O)n(CCc1ccccc1)c(=O)n2CCOC(F)(F)F
3.9
CCn1c(=O)c2c(C(C)F)c(C(=O)N3CCNC(=O)C3)sc2n(CCC(F)(F)F)c1=O (single isomer, unassigned) [Example 149]
320

a = Cc1c(C(=O)N2CCC(O)CC2)sc2c1c(=O)n(CC(c1ccccc1)C(F)(F)F)c(=O)n2CCC(F)(F)F (racemic)
b = Cc1c(C(=O)N2CCC(O)CC2)sc2c1c(=O)n(CCc1cnccn1)c(=O)n2CCC(F)(F)F
Query: Choose between a and b : whose measured IC50 value is numerically larger? # answer = label of selected item
Response: b

----------
- experimental system: human adenosine A2b receptor (Homo sapiens, UniProt P29275)
- protocol notes: Cellular reporter gene (CRE-luciferase) A2b receptor antagonist assay in recombinant CHO-K1 cells stimulated with NECA
- assay setup: recombinant CHO-K1 cell line, co-incubation with EC50 concentration of NECA, 3 hours, in some cases means, rounded to two significant digits
pIC50: −log10 of the molar value.
assay endpoint: pIC50

// worked examples, pIC50 included
CCCn1c(=O)c2c(C(F)F)c(C(=O)N3CCC(O)CC3)sc2n(CCOC(F)(F)F)c1=O
8.01
Cc1c(C(=O)N2CCC(O)CC2)sc2c1c(=O)n(CCc1ccccc1F)c(=O)n2CCC=C(F)F
7.28
Cc1c(C(=O)N2CCNC(=O)C2)sc2c1c(=O)n(CCc1ccccc1F)c(=O)n2CCC=C(F)F
7.28
CCc1c(C(=O)N2CCC(O)(CO)CC2)sc2c1c(=O)n(CC)c(=O)n2CCC(F)(F)F
7.46
CCCn1c(=O)c2c(C)c(C(=O)N3CCC(C)(O)CC3)sc2n(CCC(F)(F)F)c1=O
7.57
CCn1c(=O)c2c(C)c(C(=O)N3CCC(O)C(O)C3)sc2n(CCC(F)(F)F)c1=O (single isomer, unassigned) [Example 120]
6.89
Cc1c(C(=O)N2CCC(O)(CO)CC2)sc2c1c(=O)n(CC(F)(F)c1ccccc1)c(=O)n2CCC(F)(F)F
7.55
CCn1c(=O)c2c(C(F)F)c(C(=O)N3CCC(O)CC3)sc2n(CCOC(F)(F)F)c1=O
7.74
CCn1c(=O)c2c(C)c(C(=O)N3CCC(O)CC3)sc2n(CCC(F)(F)F)c1=O
7.24
Cc1c(C(=O)N2CCNC(=O)C2)sc2c1c(=O)n(CCc1cccnc1)c(=O)n2CCC(F)(F)F
7.17

a = CCCn1c(=O)c2c(C)c(C(=O)N3CCC(O)(CO)CC3)sc2n(CCOC)c1=O
b = Cc1c(C(=O)N2CCC(O)CC2)sc2c1c(=O)n(CC(C)(O)c1ccccc1)c(=O)n2CCC(F)(F)F (racemic) [Example 105]
Query: For the pair a and b , which entry has the numerically smaller recorded pIC50? # answer = label of selected item
Response: a

----------
- experimental system: human adenosine A2b receptor (Homo sapiens)
- protocol notes: Cellular reporter gene (CRE-luciferase) A2b receptor antagonist assay in recombinant CHO-K1 cells stimulated with NECA
- assay setup: recombinant CHO-K1 cell line, co-incubation with EC50 concentration of NECA, 3 hours, in some cases means, rounded to two significant digits
assay endpoint: IC50 (nM)

CCn1c(=O)c2c(C(C)F)c(C(=O)N3CCNC(=O)C3)sc2n(CCC(F)(F)F)c1=O (racemic) [Example 147]
100

A = CC(C)Cn1c(=O)c2c(C(F)F)c(C(=O)N3CCC(O)CC3)sc2n(CCOC(F)(F)F)c1=O [Example 137]
B = Cc1c(C(=O)N2CCNC(=O)C2)sc2c1c(=O)n(CC(F)(F)c1ccccc1)c(=O)n2CCC(F)(F)F [Example 93]
C = CCn1c(=O)c2c(C)c(C(=O)N3CCC(O)CC3)sc2n(CCCC(F)(F)F)c1=O [Example 135]
Query: Ordering criterion: IC50; begin with the maximum. // list labels; follow requested order
Response: C, B, A
(C: 94 nM, B: 36 nM, A: 12 nM)

----------
- experimental system: UniProt:P29275
- protocol notes: Cellular reporter gene (CRE-luciferase) A2b receptor antagonist assay in recombinant CHO-K1 cells stimulated with NECA
- assay setup: recombinant CHO-K1 cell line, co-incubation with EC50 concentration of NECA, 3 hours, in some cases means, rounded to two significant digits
pIC50: −log10 of the molar value.
assay endpoint: pIC50

// worked examples, pIC50 included
Cc1c(C(=O)N2CCC(O)CC2)sc2c1c(=O)n(CCC1CC1)c(=O)n2CCC(F)(F)F [Example 63]
6.68
COC(Cn1c(=O)c2c(C)c(C(=O)N3CCC(O)CC3)sc2n(CCC(F)(F)F)c1=O)C(F)(F)F (racemic) [Example 66]
6.55
CCCn1c(=O)c2c(C)c(C(=O)N3CCC(O)CC3)sc2n(CCOC(F)(F)F)c1=O [Example 60]
7.92

a = CCn1c(=O)c2c(C(F)F)c(C(=O)N3CCNC(=O)C3)sc2n(CCC(F)(F)F)c1=O [Example 131]
b = CCn1c(=O)c2c(C)c(C(=O)N3CCC(O)(CC)CC3)sc2n(CCOC(F)(F)F)c1=O [Example 112]
c = COc1ccc(CCn2c(=O)c3c(C)c(C(=O)N4CCC(O)CC4)sc3n(CCC(F)(F)F)c2=O)cc1 [Example 14]
d = Cc1c(C(=O)N2CCC(O)CC2)sc2c1c(=O)n(CC(O)c1ccccc1)c(=O)n2CCC(F)(F)F (single isomer, unassigned) [Example 101]
Query: Ordering criterion: pIC50; begin with the maximum. // list labels; follow requested order
Response: b, a, c, d

----------
- experimental system: human adenosine A2b receptor (Homo sapiens, UniProt P29275)
- Construct: expressed in transfected cells; host or cells: CHO-K1 (Chinese Hamster Ovary) with CRE-luciferase reporter
- protocol notes: Cellular reporter gene (CRE-luciferase) A2b receptor antagonist assay in recombinant CHO-K1 cells stimulated with NECA
- Format: cell-based
- assay setup: recombinant CHO-K1 cell line, co-incubation with EC50 concentration of NECA, 3 hours, in some cases means, rounded to two significant digits
pIC50: −log10 of the molar value.
assay endpoint: pIC50

CCn1c(=O)c2c(C(C)F)c(C(=O)N3CCC(O)CC3)sc2n(CCC(F)(F)F)c1=O (racemic)
7.01

a = Cc1c(C(=O)N2CCC(O)CC2)sc2c1c(=O)n(CCc1ccc(F)cc1)c(=O)n2CCC(F)(F)F
b = C=C(Cn1c(=O)n(CC)c(=O)c2c(C)c(C(=O)N3CCC(O)CC3)sc21)C(F)(F)F
c = CCn1c(=O)c2c(C)c(C(=O)N3CCNC(=O)C3)sc2n(CCC(F)(F)F)c1=O
Query: Ordering criterion: pIC50; begin with the maximum. // list labels; follow requested order
Response: a, c, b
(a: 7.19, c: 6.92, b: 6.42)

----------
- experimental system: human adenosine A2b receptor (Homo sapiens, UniProt P29275)
- Construct: expressed in transfected cells; host or cells: CHO-K1 (Chinese Hamster Ovary) with CRE-luciferase reporter
- Sequence (P29275 1-332): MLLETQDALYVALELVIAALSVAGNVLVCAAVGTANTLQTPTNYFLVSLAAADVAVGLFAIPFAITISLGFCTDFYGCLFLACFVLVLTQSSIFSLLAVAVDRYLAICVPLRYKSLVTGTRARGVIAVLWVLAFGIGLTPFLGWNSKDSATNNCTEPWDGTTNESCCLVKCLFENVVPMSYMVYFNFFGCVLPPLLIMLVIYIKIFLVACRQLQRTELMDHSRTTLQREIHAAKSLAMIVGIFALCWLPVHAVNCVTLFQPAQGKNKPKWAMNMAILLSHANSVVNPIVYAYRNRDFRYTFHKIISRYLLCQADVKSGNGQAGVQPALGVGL
- protocol notes: Cellular reporter gene (CRE-luciferase) A2b receptor antagonist assay in recombinant CHO-K1 cells stimulated with NECA
- Format: cell-based
- assay setup: recombinant CHO-K1 cell line, co-incubation with EC50 concentration of NECA, 3 hours, in some cases means, rounded to two significant digits
pIC50: −log10 of the molar value.
assay endpoint: pIC50

// worked examples, pIC50 included
CCn1c(=O)c2c(C)c(C(=O)N3CCC(O)CC3)sc2n(CCOC(F)(F)F)c1=O
7.72
CCn1c(=O)c2c(C(C)F)c(C(=O)N3CCC(C)(O)CC3)sc2n(CCC(F)(F)F)c1=O (racemic)
7.40
CCn1c(=O)c2c(C(F)F)c(C(=O)N3CCC(O)(CC)CC3)sc2n(CCC(F)(F)F)c1=O
7.32
Cc1c(C(=O)N2CCC(O)CC2)sc2c1c(=O)n(CC(F)(F)c1ccccc1)c(=O)n2CCC(F)(F)F
7.80

A = CCn1c(=O)c2c(C)c(C(=O)N3CCC(O)(C(F)(F)F)CC3)sc2n(CCC(F)(F)F)c1=O
B = CCc1c(C(=O)N2CCC(O)(CC)CC2)sc2c1c(=O)n(CC)c(=O)n2CCC(F)(F)F
Query: Choose between A and B : whose measured pIC50 value is numerically larger? # answer = label of selected item
Response: B

A = COCCn1c(=O)n(CC(F)(F)c2ccccc2)c(=O)c2c(C)c(C(=O)N3CCC(O)(CO)CC3)sc21
B = Cc1c(C(=O)N2CCNC(=O)C2)sc2c1c(=O)n(CCc1ccccc1F)c(=O)n2CCC(F)(F)F
Query: Choose between A and B : whose measured pIC50 value is numerically larger? # answer = label of selected item
Response: B
